Entry source: ChEMBL document CHEMBL3421535

PROTOCOL_TEXT: Antioxidant activity assessed as trolox equivalent of ABTS radical scavenging activity after 10 mins by lipophilic-TEAC […] assay
Assay type: physicochemical
QUANTITY_KIND: Activity (mmolequiv/mmol)

CC1(C)C=Cc2c(cc3oc4c(O)c(O)ccc4c(=O)c3c2O)O1 = 2.06
O=c1c(O)c(-c2ccc(O)c(O)c2)oc2cc(O)cc(O)c12 = 4.84
O=C1O[C@H]([C@@H](O)CO)C(O)=C1O = 1.09
COc1cc(C(=O)c2c(O)cc3c(c2OC)C=CC(C)(C)O3)ccc1O = 1.04
O=C1CC(c2ccc(O)cc2)Oc2cc(O)cc(O)c21 (racemic) = 2.94
C=C(C)[C@@H](CC=C(C)C)C[C@@]12C[C@@H](CC=C(C)C)C(C)(C)[C@@](CC=C(C)C)(C(=O)C(C(=O)c3ccc(O)c(O)c3)=C1O)C2=O = 1.92
CC(C)=CCc1c(O)cc2oc3c(O)c(O)ccc3c(=O)c2c1O = 2.96
O=C1c2c(O)cc(O)c(-c3coc4cc(O)cc(O)c4c3=O)c2O[C@H](c2ccc(O)c(O)c2)[C@H]1O = 2.92
CC(C)=CC[C@H]1C[C@@]23C[C@@H](CC=C(C)C)C(C)(C)[C@@](CC=C(C)C)(C(=O)C(C(=O)c4ccc(O)c(O)c4)=C2OC1(C)C)C3=O = 1.67

====

PROTOCOL_TEXT: Antioxidant activity assessed as trolox equivalent of […] radical scavenging activity preincubated for 30 mins followed by […] addition measured after 90 mins by lipophilic-ORAC fluorescence assay
Type: physicochemical
RUN_CONDITIONS: 1.5 h
List of Activity values.
QUANTITY_KIND: Activity (mmolequiv/mmol)

O=c1c(O)c(-c2ccc(O)c(O)c2)oc2cc(O)cc(O)c12 [QUERCETIN] = 11.94
O=C1c2c(O)cc(O)c([C@@H]3C(=O)c4c(O)cc(O)cc4O[C@H]3c3ccc(O)c(O)c3)c2O[C@H](c2ccc(O)c(O)c2)[C@H]1O = 15
O=C1CC(c2ccc(O)cc2)Oc2cc(O)cc(O)c21 (racemic) = 7.35
O=C1c2c(O)cc(O)c(-c3coc4cc(O)cc(O)c4c3=O)c2O[C@H](c2ccc(O)c(O)c2)[C@H]1O = 6.96
O=C1c2c(O)cc(O)cc2O[C@H](c2ccc(O)c(O)c2)C1O (single isomer, unassigned) [(+)-TAXIFOLIN] = 9.3
COc1c(O)ccc2c1Oc1cc(O)c(CC=C(C)C)c(O)c1C(=O)O2 = 4.34
CC(C)=CC[C@H]1C[C@@]23C[C@@H](CC=C(C)C)C(C)(C)[C@@](CC=C(C)C)(C(=O)C(C(=O)c4ccc(O)c(O)c4)=C2OC1(C)C)C3=O [CAMBOGIN] = 3.68
O=C1c2c(cc(O)c([C@@H]3C(=O)c4c(O)cc(O)cc4O[C@H]3c3ccc(O)c(O)c3)c2O)O[C@H](c2ccc(O)c(O)c2)[C@H]1O = 14.56
COc1cc(C(=O)c2c(O)cc3c(c2OC)C=CC(C)(C)O3)ccc1O = 4.87
O=C1O[C@H]([C@@H](O)CO)C(O)=C1O [ASCORBIC ACID] = 0.73
CC1(C)C=Cc2c(cc3oc4c(O)c(O)ccc4c(=O)c3c2O)O1 [JACAREUBIN] = 2.74
Oc1cc(O)c2c(c1)O[C@H](c1ccc(O)c(O)c1)[C@H](O)C2 [(-)-EPICATECHIN] = 15.69
O=c1c2cc(O)ccc2oc2cccc(O)c12 = 2.95
CC(C)=CCc1c(O)cc2oc3c(O)c(O)ccc3c(=O)c2c1O = 3.81
C=C(C)[C@@H](CC=C(C)C)C[C@@]12C[C@@H](CC=C(C)C)C(C)(C)[C@@](CC=C(C)C)(C(=O)C(C(=O)c3ccc(O)c(O)c3)=C1O)C2=O [GARCINOL] = 3.44

====

Item-by-item account of log10 of EC50
PROTOCOL_TEXT: Antioxidant activity assessed as H2O2 scavenging activity after 15 mins
Type: physicochemical
QUANTITY_KIND: log10 of EC50 (log10 of the value in µM)

O=C1c2c(cc(O)c([C@@H]3C(=O)c4c(O)cc(O)cc4O[C@H]3c3ccc(O)c(O)c3)c2O)O[C@H](c2ccc(O)c(O)c2)[C@H]1O = 0.93
CC(C)=CC[C@H]1C[C@@]23C[C@@H](CC=C(C)C)C(C)(C)[C@@](CC=C(C)C)(C(=O)C(C(=O)c4ccc(O)c(O)c4)=C2OC1(C)C)C3=O = 1.92
O=C1c2c(O)cc(O)cc2O[C@H](c2ccc(O)c(O)c2)C1O (single isomer, unassigned) [(+)-TAXIFOLIN] = 1.05
Oc1cc(O)c2c(c1)O[C@H](c1ccc(O)c(O)c1)[C@H](O)C2 [(-)-EPICATECHIN] = 0.61
O=C1O[C@H]([C@@H](O)CO)C(O)=C1O = 1.38
O=C1CC(c2ccc(O)cc2)Oc2cc(O)cc(O)c21 (racemic) = 0.93

====

PROTOCOL_TEXT: Antioxidant activity assessed as trolox equivalent of ABTS radical scavenging activity after 10 mins by lipophilic-TEAC […] assay
Assay type: physicochemical
Attribute: Activity
QUANTITY_KIND: Activity (mmolequiv/mmol)

Cc1cc(C(C)(C)C)c(O)c(C(C)(C)C)c1 [BUTYLATED HYDROXYTOLUENE] = 0.76
COc1c(O)ccc2c1Oc1cc(O)c(CC=C(C)C)c(O)c1C(=O)O2 = 1.68
Oc1cc(O)c2c(c1)O[C@H](c1ccc(O)c(O)c1)[C@H](O)C2 [(-)-EPICATECHIN] = 5.01
O=c1c2cc(O)ccc2oc2cccc(O)c12 = 1.33

====

Catalogue of molecules with associated Activity
PROTOCOL_TEXT: Antioxidant activity assessed as trolox equivalent of ABTS radical scavenging activity after 10 mins by hydrophilic-TEAC fluorescence assay
Format: physicochemical
QUANTITY_KIND: Activity (mmolequiv/mmol)

O=C1c2c(O)cc(O)cc2O[C@H](c2ccc(O)c(O)c2)C1O (single isomer, unassigned) [(+)-TAXIFOLIN] = 2.48
O=C1O[C@H]([C@@H](O)CO)C(O)=C1O = 1.16
COc1c(O)ccc2c1Oc1cc(O)c(CC=C(C)C)c(O)c1C(=O)O2 = 0.89
CC(C)=CCc1c(O)cc2oc3c(O)c(O)ccc3c(=O)c2c1O = 0.89
CC(C)=CC[C@H]1C[C@@]23C[C@@H](CC=C(C)C)C(C)(C)[C@@](CC=C(C)C)(C(=O)C(C(=O)c4ccc(O)c(O)c4)=C2OC1(C)C)C3=O = 0.48
O=c1c(O)c(-c2ccc(O)c(O)c2)oc2cc(O)cc(O)c12 = 4.85
O=C1CC(c2ccc(O)cc2)Oc2cc(O)cc(O)c21 (racemic) = 1.98
O=c1c2cc(O)ccc2oc2cccc(O)c12 = 0.4

====

# reported Activity; entries follow
PROTOCOL_TEXT: Antioxidant activity assessed as trolox equivalent of ABTS radical scavenging activity measured for 1 to 6 mins by lipophilic-TEAC […] assay
Format: physicochemical
QUANTITY_KIND: Activity (mMequiv)

O=C1CC(c2ccc(O)cc2)Oc2cc(O)cc(O)c21 (racemic) = 1.14
O=c1c(O)c(-c2ccc(O)c(O)c2)oc2cc(O)cc(O)c12 [QUERCETIN] = 3.1
O=C1O[C@H]([C@@H](O)CO)C(O)=C1O [ASCORBIC ACID] = 1.05
Cc1cc(C(C)(C)C)c(O)c(C(C)(C)C)c1 [BUTYLATED HYDROXYTOLUENE] = 0.27

====

Below, each entry is listed alongside its reported Activity.
PROTOCOL_TEXT: Antioxidant activity assessed as trolox equivalent of ABTS radical scavenging activity after 10 mins by lipophilic-TEAC […] assay
Format: physicochemical
QUANTITY_KIND: Activity

O=C1c2c(cc(O)c([C@@H]3C(=O)c4c(O)cc(O)cc4O[C@H]3c3ccc(O)c(O)c3)c2O)O[C@H](c2ccc(O)c(O)c2)[C@H]1O = 4.95 mmolequiv/mmol
O=C1c2c(O)cc(O)c([C@@H]3C(=O)c4c(O)cc(O)cc4O[C@H]3c3ccc(O)c(O)c3)c2O[C@H](c2ccc(O)c(O)c2)[C@H]1O = 5.29 mmolequiv/mmol
O=C1c2c(O)cc(O)cc2O[C@H](c2ccc(O)c(O)c2)C1O (single isomer, unassigned) [(+)-TAXIFOLIN] = 2.84 mmolequiv/mmol

====

PROTOCOL_TEXT: Antioxidant activity assessed as trolox equivalent of ABTS radical scavenging activity after 10 mins by hydrophilic-TEAC fluorescence assay
Assay type: physicochemical
QUANTITY_KIND: Activity

O=C1c2c(O)cc(O)c(-c3coc4cc(O)cc(O)c4c3=O)c2O[C@H](c2ccc(O)c(O)c2)[C@H]1O = 1.48 mmolequiv/mmol
COc1cc(C(=O)c2c(O)cc3c(c2OC)C=CC(C)(C)O3)ccc1O = 0.4 mmolequiv/mmol
O=C1c2c(cc(O)c([C@@H]3C(=O)c4c(O)cc(O)cc4O[C@H]3c3ccc(O)c(O)c3)c2O)O[C@H](c2ccc(O)c(O)c2)[C@H]1O = 3.5 mmolequiv/mmol
Oc1cc(O)c2c(c1)O[C@H](c1ccc(O)c(O)c1)[C@H](O)C2 [(-)-EPICATECHIN] = 3.71 mmolequiv/mmol
CC1(C)C=Cc2c(cc3oc4c(O)c(O)ccc4c(=O)c3c2O)O1 = 0.84 mmolequiv/mmol
O=C1c2c(O)cc(O)c([C@@H]3C(=O)c4c(O)cc(O)cc4O[C@H]3c3ccc(O)c(O)c3)c2O[C@H](c2ccc(O)c(O)c2)[C@H]1O = 5.58 mmolequiv/mmol
C=C(C)[C@@H](CC=C(C)C)C[C@@]12C[C@@H](CC=C(C)C)C(C)(C)[C@@](CC=C(C)C)(C(=O)C(C(=O)c3ccc(O)c(O)c3)=C1O)C2=O = 0.81 mmolequiv/mmol
